# assay_details: gradient 5% acetonitrile 3 min, to 50% in 2 min, to 85% in 15 min, held 3 min, 100 µL/min
# test_settings: column: Zorbax Extend-C18 2.1 x 50 mm; eluents: water / acetonitrile, 0.1% formic acid

| compound | RP-LC retention time / s |
| --- | --- |
| Cc1cc(C)cc(NC(=O)CN2C(=O)CSc3ccc(C(=O)N(C)C)cc32)c1 | 906 |
| CC1CCCN(c2nn(CC(=O)Nc3ccccc3F)c(=O)c3ccccc23)C1 (stereo not drawn) | 1140 |
| CC(C)CN(CC(C)C)c1nc(-c2ccc(C(C)(C)C)cc2)nc2ccccc12 | 1240 |
| O=C(Cn1cnc(-c2nc(-c3ccccc3)cs2)c1)Nc1cc(F)ccc1F | 825 |
| CN(C)S(=O)(=O)c1ccc2c(c1)cc(C(=O)NCCc1c[nH]c3ccccc13)n2C | 895 |
| CCOC(=O)COc1cc(-c2ccc(C)cc2)nc2ccc(NC(=O)c3cccs3)cc12 | 830 |
| CO[C@H]1C(=O)N(C(C)C)[C@H]1C1CCN(C(=O)C(C)C)CC1 | 682 |
| COC(=O)CCSCC(=O)Nc1ccc(C)cc1C | 742 |
| O=C(CN1C(=O)CCCc2cc(S(=O)(=O)N3CCCCCC3)ccc21)Nc1ccc(F)cc1F | 962 |
| O=C(NCCc1csc(-c2cccc(F)c2)n1)c1ccc([N+](=O)[O-])cc1Cl | 917 |
| O=C(CC1C=Cc2ccccc2N1C(=O)c1ccccc1)c1ccccc1 (stereo not drawn) | 1270 |
| CCOC(=O)c1cc(S(=O)(=O)N2CCCC2C(=O)Nc2cccc(SC)c2)cn1C (stereo not drawn) | 995 |
| CCc1nn2c(CNC(=O)c3cccnc3)c(-c3ccccc3)nc2s1 | 700 |
| O=C(NCC1CCCCC1)C1CCN(c2nnc3ccccn23)CC1 | 628 |
| COCCC1CCN(C(=O)c2nccc3ccccc23)CC1 | 719 |
| Cc1ccc(C)c(NS(=O)(=O)c2cc(-c3[nH]ncc3C(=O)N(C)C)oc2C)c1 | 700 |
| CC1(O)CCOC2(CCN(Cc3cn[nH]c3-c3ccccc3)CC2)C1 (stereo not drawn) | 584 |
| COc1cc(C2CC(=O)c3c([nH]c(C(=O)OC4CCCCC4)c3C)C2)cc(OC)c1OC (stereo not drawn) | 1090 |
| COc1ccc(C)cc1NC(=O)N1CCCC(C)(C(=O)NCc2ccc(C)cc2)C1 (stereo not drawn) | 968 |
| COC1CCC12CCN(C(=O)c1ccoc1)CC2 (stereo not drawn) | 723 |
| CC1=C(c2ccc(C)cc2)S(=O)(=O)N=C1N1CCCN(C(=O)c2ccccn2)CC1 | 758 |
| Cc1c(Cl)cccc1Nc1c(-c2ccccc2)nc2cnccn12 | 997 |
| CCCn1c(=O)sc2cc(S(=O)(=O)N3CCC(C(=O)N4CCCCCC4)CC3)ccc21 | 937 |
| COc1cc2nc(C(=O)N3CCCCC3)cc(Nc3cccc(SC)c3)c2cc1OC | 723 |
| CC(=O)OC[C@]12CCC(C)=C[C@H]1O[C@@H]1[C@H](O)[C@@H](OC(C)=O)[C@@]2(C)[C@@]12CO2 | 750 |
| O=C(NCCCN1CCCCC1)C1CCCN(c2ncc(-c3ccc(F)cc3)cn2)C1 (stereo not drawn) | 684 |
| CCc1nc2c(NC(=O)c3ccc(Cl)s3)cccn2n1 | 941 |
| C=CCNC(=O)c1ccc2c(c1)c(C)c(C)n2C | 828 |
| COc1ccc(S(=O)(=O)N2C[C@@H](F)C[C@H]2C(=O)N2CCOCC2)cc1 | 669 |
| CC(C)CN1CCN(C(=O)c2cn(-c3ccc(-c4nc(C(C)(C)C)no4)cn3)cn2)CC1 | 699 |
| CCN1C(=O)c2cccnc2Sc2cc(NC(=O)C3CCCCC3)ccc21 | 877 |
| Cc1ccc(NC(=O)Cc2c(C(=O)O)c(C)cn2C)nc1 | 642 |
| O=C(c1ccncc1)N1CCC(c2noc(-c3cnccn3)n2)C1 (stereo not drawn) | 584 |
| CCc1ccc(NC(=O)c2sc3nc(C)nc(N4CCN(c5ccccn5)CC4)c3c2C)cc1 | 779 |
| O=C(N[C@H]1C[C@@H]2C[C@H]1CN2S(=O)(=O)c1cccc2nsnc12)c1ccccc1 | 722 |
| CCOc1ccccc1NC(=O)Cn1c(=O)n(Cc2cccs2)c(=O)c2ncccc21 | 772 |
| O=C1CC(c2ccccc2)Cc2nc(N3CCN(c4ccccn4)CC3)ncc21 (stereo not drawn) | 624 |
| CCCCN1C(=O)C(C)(C(=O)Nc2ccc(F)cc2)Oc2cccnc21 (stereo not drawn) | 1030 |
